- experimental.target: CB1 (Rattus norvegicus)
- Construct: membrane preparations from rat brain (source of CB1); tissue Bioivt RAT00BRAINMZN; host or cells: rat brain
- Sequence (P20272 whole entry): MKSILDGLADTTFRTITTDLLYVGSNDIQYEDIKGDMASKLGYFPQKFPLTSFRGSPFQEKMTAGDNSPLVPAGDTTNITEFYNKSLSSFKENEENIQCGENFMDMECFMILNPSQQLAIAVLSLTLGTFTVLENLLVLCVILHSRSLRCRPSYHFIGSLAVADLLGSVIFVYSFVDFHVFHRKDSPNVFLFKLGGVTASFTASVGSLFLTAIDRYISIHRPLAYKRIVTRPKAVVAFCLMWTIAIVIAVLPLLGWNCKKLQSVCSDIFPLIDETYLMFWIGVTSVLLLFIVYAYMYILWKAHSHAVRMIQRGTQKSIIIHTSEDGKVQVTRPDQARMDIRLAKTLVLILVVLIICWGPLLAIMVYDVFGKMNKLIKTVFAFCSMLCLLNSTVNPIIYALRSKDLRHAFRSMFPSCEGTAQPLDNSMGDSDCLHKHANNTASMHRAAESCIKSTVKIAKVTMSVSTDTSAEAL
- assay.explanation: Radioligand competition binding with [3H]-CP-55,940, rat brain membranes
- assay.setup: rCB1 binding pKi [95% CI], [3H]-CP-55,940 competition, rat brain membranes

{"compound": "COC(=O)[C@](C)(NC(=O)c1cc(C)n(-c2cccc(C(F)(F)F)c2)n1)c1cccs1", "experimental.target": "CB1 (Rattus norvegicus)", "readout.unit": "nM", "Ki": 79.4}
{"compound": "COC(=O)C(NC(=O)c1cc(C)n(-c2cccc(C(F)(F)F)c2)n1)c1cccs1 (stereo not shown)", "experimental.target": "CB1 (Rattus norvegicus)", "readout.unit": "nM", "Ki": 39.8}
{"compound": "CCCCCCC(C)(C)c1cc(O)c2c(c1)OC(C)(C)C1CCC(=O)CC21 (stereo not shown) [Nabilone, reference compound]", "experimental.target": "CB1 (Rattus norvegicus)", "readout.unit": "nM", "Ki": 2.51}
{"compound": "COC(=O)[C@@](C)(NC(=O)c1cc(C)n(-c2cccc(C(F)(F)F)c2)n1)c1cccs1", "experimental.target": "CB1 (Rattus norvegicus)", "readout.unit": "nM", "Ki": 1}
